tested on: Pseudomonas; assay: Antimicrobial activity against Pseudomonas assessed as inhibition of bacterial growth incubated for 24 hrs by agar dilution method; assay type: functional
The compounds listed here are annotated with their MIC.

Below, 3 compounds whose answers are already recorded.
cpd_smiles=CC1=CC(=O)[C@@](C)(O)C(=O)/C1=C\Nc1cc(F)c(F)c(F)c1 experimental_target=Pseudomonas data_value="7.76 µg/mL"
cpd_smiles=CC1=CC(=O)[C@@](C)(O)C(=O)/C1=C\Nc1ccc(Br)cc1 experimental_target=Pseudomonas data_value="> 10 µg/mL"
cpd_smiles=CC1=CC(=O)[C@@](C)(O)C(=O)/C1=C\Nc1cccc(OC(F)(F)F)c1 experimental_target=Pseudomonas data_value="> 10 µg/mL"

Reported MIC ( "CC1=CC(=O)[C@@](C)(O)C(=O)/C1=C\Nc1ccc(C)cc1" ) = > 10 µg/mL

The measured MIC associated with "O=C(O)c1cn(C2CC2)c2cc(N3CCNCC3)c(F)cc2c1=O" reads 1.04 µg/mL

// sample "CC1=CC(=O)[C@@](C)(O)C(=O)/C1=C\Nc1ccc(Br)cc1F" , its MIC was > 10 µg/mL

# compound "CC1=CC(=O)[C@@](C)(O)C(=O)/C1=C\Nc1ccc(F)c([N+](=O)[O-])c1" ; its MIC = > 10 µg/mL

For this compound ( "CC1=CC(=O)[C@@](C)(O)C(=O)/C1=C\Nc1ccccc1" ), measured MIC is > 10 µg/mL

The measured values listed here are drawn from ChEMBL document CHEMBL5053538.
